The reported numbers originate from ChEMBL document CHEMBL1134360.

Listing: Displacement of selected molecules
- Study System: UniProt:P30543
- Sequence (P30543 whole entry): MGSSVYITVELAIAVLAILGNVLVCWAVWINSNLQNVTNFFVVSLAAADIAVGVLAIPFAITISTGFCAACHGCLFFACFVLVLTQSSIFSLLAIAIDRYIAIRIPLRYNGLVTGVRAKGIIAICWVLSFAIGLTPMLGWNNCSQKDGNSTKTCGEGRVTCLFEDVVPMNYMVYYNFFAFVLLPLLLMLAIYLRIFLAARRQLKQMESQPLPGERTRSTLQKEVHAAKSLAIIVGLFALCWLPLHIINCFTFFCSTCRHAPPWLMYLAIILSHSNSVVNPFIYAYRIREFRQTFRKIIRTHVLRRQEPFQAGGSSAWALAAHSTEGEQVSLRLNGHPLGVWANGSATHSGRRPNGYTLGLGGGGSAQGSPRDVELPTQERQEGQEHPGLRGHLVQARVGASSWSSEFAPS
- Protocol Summary: Displacement of [3H]CGS-21680 or [3H]ZM-241,385 binding in adenosine A2A receptor of rat striatal membrane at 10 uM

Molecule: O=C(Nc1nc(-c2ccccn2)cs1)c1ccc(I)cc1
Study System: UniProt:P30543
Displacement / %: 50
--
Molecule: COc1ccc(C(=O)Nc2cc(-c3ccccc3)ncn2)cc1
Study System: UniProt:P30543
Displacement / %: 31
--
Molecule: COc1ccc(C(=O)Nc2nc(-c3ccccn3)cs2)cc1
Study System: UniProt:P30543
Displacement / %: 40
--
Molecule: O=C(Nc1nc(-c2ccccc2)ns1)C1CCC(O)CC1 (stereo in doubt; 8n)
Study System: UniProt:P30543
Displacement / %: 41
--
Molecule: O=C(Nc1nc(-c2ccccc2)ns1)c1ccc(I)cc1
Study System: UniProt:P30543
Displacement / %: 19
--
Molecule: O=C(Nc1nc(-c2ccccn2)cs1)c1ccc(Cl)cc1
Study System: UniProt:P30543
Displacement / %: 30
--
Molecule: Cc1ccc(C(=O)Nc2nc(-c3ccccn3)cs2)cc1
Study System: UniProt:P30543
Displacement / %: 44
--
Molecule: COc1ccc(NC(=O)Nc2nc(-c3ccccc3)ns2)cc1
Study System: UniProt:P30543
Displacement / %: 16
--
Molecule: COc1ccc(C(=O)Nc2cccc(-c3ccccc3)c2)cc1
Study System: UniProt:P30543
Displacement / %: 41
--
Molecule: O=C(Nc1nc(-c2ccccc2)ns1)C1CCC(O)CC1 (stereo in doubt)
Study System: UniProt:P30543
Displacement / %: 37
--
Molecule: COc1ccc(C(=O)Nc2cccc(-c3ccccc3)n2)cc1
Study System: UniProt:P30543
Displacement / %: 16
--
Molecule: O=C(Nc1nc(-c2ccccc2)ns1)c1ccc(Cl)cc1
Study System: UniProt:P30543
Displacement / %: 36

* * *

- Study System: Adenosine receptor A2a (Rattus norvegicus)
- Protocol Summary: Percentage displacement of [3H]-CGS- 21680 binding in adenosine A2A receptor of rat striatal membrane at a concentration of 10 uM

Smiles Code: O=C(Nc1nc(-c2ccccn2)nc2ccccc12)c1ccccc1
Displacement / %: 9
//
Smiles Code: O=C(Nc1nc(-c2ccccc2)cc2ccccc12)c1ccccc1
Displacement / %: 0
//
Smiles Code: O=C(Nc1nc(-c2ccccn2)cc2ccccc12)c1ccccc1
Displacement / %: 0
//
Smiles Code: COc1ccc(C(=O)Nc2nc(-c3ccccc3)nc3ccccc23)cc1
Displacement / %: 44
//
Smiles Code: O=C(Nc1nc(-c2ccccc2)nc2ccccc12)c1ccccc1
Displacement / %: 17
//
Smiles Code: COc1ccc(C(=O)Nc2nc(-c3ccccc3)cc3ccccc23)cc1
Displacement / %: 35

* * *

- Study System: Adenosine receptor A1 (Rattus norvegicus, UniProt P25099)
- Sequence (P25099 whole entry): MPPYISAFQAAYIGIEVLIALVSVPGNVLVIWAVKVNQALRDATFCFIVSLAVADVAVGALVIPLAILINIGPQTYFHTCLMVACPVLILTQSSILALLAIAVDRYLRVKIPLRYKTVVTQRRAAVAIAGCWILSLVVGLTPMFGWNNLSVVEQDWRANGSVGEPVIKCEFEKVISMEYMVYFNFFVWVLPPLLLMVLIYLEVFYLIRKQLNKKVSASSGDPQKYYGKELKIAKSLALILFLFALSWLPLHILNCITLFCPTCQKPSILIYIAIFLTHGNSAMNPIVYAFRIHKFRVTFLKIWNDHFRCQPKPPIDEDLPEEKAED
pKi: −log10 of the molar value.

Molecule: COC1CCC(C(=O)Nc2nc(-c3ccccc3)ns2)CC1 (stereo in doubt; 8l)
Study System: Adenosine receptor A1 (Rattus norvegicus, UniProt P25099)
Limit Qualifier: =
pKi: 6.96

Molecule: O=C(O)COc1ccc(C(=O)Nc2nc(-c3ccccc3)ns2)cc1
Study System: Adenosine receptor A1 (Rattus norvegicus, UniProt P25099)
Limit Qualifier: =
pKi: 7.00

Molecule: O=C(Nc1nc(-c2ccccn2)cs1)C1CCCC1
Study System: Adenosine receptor A1 (Rattus norvegicus, UniProt P25099)
Limit Qualifier: =
pKi: 6.04

Molecule: O=C(Nc1nc(-c2ccccc2)ns1)C1CCCCC1
Study System: Adenosine receptor A1 (Rattus norvegicus, UniProt P25099)
Limit Qualifier: =
pKi: 5.85

Molecule: O=C(Nc1nc(-c2ccccn2)cs1)c1ccc(Cl)c(Cl)c1
Study System: Adenosine receptor A1 (Rattus norvegicus, UniProt P25099)
Limit Qualifier: =
pKi: 5.80

Molecule: Cc1ccc(C(=O)Nc2nc(-c3ccccn3)cs2)cc1
Study System: Adenosine receptor A1 (Rattus norvegicus, UniProt P25099)
Limit Qualifier: =
pKi: 5.80

Molecule: COc1ccc(C(=O)Nc2nc(-c3ccccc3)cs2)cc1
Study System: Adenosine receptor A1 (Rattus norvegicus, UniProt P25099)
Limit Qualifier: =
pKi: 7.12

Molecule: COc1ccc(C(=O)Nc2nc(-c3ccccc3)ns2)cc1
Study System: Adenosine receptor A1 (Rattus norvegicus, UniProt P25099)
Limit Qualifier: =
pKi: 7.49

Molecule: COc1ccc(C(=O)Nc2nc(-c3ccccn3)cc3ccccc23)cc1
Study System: Adenosine receptor A1 (Rattus norvegicus, UniProt P25099)
Limit Qualifier: <
pKi: 5.00

Molecule: O=C(Nc1nc(-c2ccccc2)cc2ccccc12)c1ccccc1
Study System: Adenosine receptor A1 (Rattus norvegicus, UniProt P25099)
Limit Qualifier: =
pKi: 5.92
